This section presents binders with their documented pKd values.
- SYSTEM UNDER TEST: full-length human Siglec-8 (Siglec-8^FL) (human, UniProt Q9NYZ4 17-499)
- Sequence (Q9NYZ4 17-499): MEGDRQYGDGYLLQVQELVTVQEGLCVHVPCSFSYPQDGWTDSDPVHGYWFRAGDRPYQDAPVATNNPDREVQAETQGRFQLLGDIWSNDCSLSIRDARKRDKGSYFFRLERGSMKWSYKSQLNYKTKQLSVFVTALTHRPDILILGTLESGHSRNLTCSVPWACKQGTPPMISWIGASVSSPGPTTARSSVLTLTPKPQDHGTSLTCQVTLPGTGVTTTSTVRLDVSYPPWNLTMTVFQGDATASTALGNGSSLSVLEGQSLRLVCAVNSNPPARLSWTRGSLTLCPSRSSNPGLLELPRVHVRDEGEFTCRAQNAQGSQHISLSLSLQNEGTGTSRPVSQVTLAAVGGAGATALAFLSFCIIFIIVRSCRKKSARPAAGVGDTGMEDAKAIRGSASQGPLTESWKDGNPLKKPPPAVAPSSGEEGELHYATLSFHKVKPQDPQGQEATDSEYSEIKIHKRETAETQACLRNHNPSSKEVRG
- METHOD DESCRIPTION: BLI
API: returns pKd as number; meaning -log10 of concentration in mol/L.

INSERT INTO results (binder, metric_name, recorded_measurement) VALUES
  ('S8-ATX1B6 (antibody, V domains shown) VH: QVQLVESGGGVVLPGRSLRLSCAASGFTFNIYGMHWVRQAPGKGLEWVAVISYDGNNKEYADSVKGRFTISRDSSRNTLYLQMNSLRAEDTAVYYCAKRGYGSSSLEFWGQGTLVTVSS VL: DIQMTQSPSSLSASVGDRVTITCRSSQDIRNDLGWYQQKPGKAPKRLIYASSNLQSGVPSRFSGSGSGTEFTLTISSLQPDDFATYYCLQHNTYPYTFGQGTKLEIK', 'pKd', 11.66);

Next binder, please.
Give the measured pKd of S8-ATX1E2 (antibody, V domains shown) VH: EVQLVESGGGLVKPGESLRLSCAASGFTFSNAWMSWVRQAPGKGLEWVGRDGGARDYAAPVKGRFTISRDDSKNTLYLQMNTLKTEDTAVYYCTKGAFFFDYWGQGTLVTVSS VL: EIVLTQSPGTLSLSPGERATLSCRASQSVISGYLAWYQQKPGQAPRLLIYGASRRATGITDRFSGSGSGTDFTLIISRLEPEDSAVYYCQQYDSSPRTFGQGTKVEIK .
9.18

Each recorded value in this set is attributed to patent US20250034245A1.
